For each entry below, report its GI50 value.
- System: NCI-H460
- assay comment: Growth inhibition of human NCI-H460 cells after 48 hrs by SRB assay
- Assay type: functional
- study conditions: NCI-H460, 48 h
Please respond with the number in µM and leave the unit unwritten.

// assay NCI-H460, entry `C=C1C[C@H](OC(C)=O)C(=O)C(C)(C)/C=C/[C@@H](C)C(=O)[C@@]2(OC(C)=O)C[C@H](C)[C@H](OC(=O)c3ccccc3)[C@]2(O)[C@H]1OC(C)=O` , GI50 value = 55.6

// assay NCI-H460, entry CC1=C2C=C3CC[C@@H]4C(C)(C)[C@H](O)CC[C@@]4(C)[C@@H]3C[C@H]2OC1=O [HELIOSCOPINOLIDE A] , GI50 value = 72.8

// assay NCI-H460, entry `CC(=O)O[C@H]1[C@H](C)C[C@]2(O)C(=O)/C(C)=C/CC(C)(C)[C@H](OC(C)=O)C[C@@H](OC(=O)c3ccccc3)/C(C)=C/[C@@H]12` , GI50 value = 37.5

// assay NCI-H460, entry `COc1cccc2c1C(=O)c1c(O)c3c(c(O)c1C2=O)C[C@@](O)(C(=O)CO)C[C@@H]3O[C@H]1C[C@H](N)[C@H](O)[C@H](C)O1` , GI50 value = 0.094

From: ChEMBL document CHEMBL1151219
